- tested_on: hUP1-R1P (Homo sapiens)
- Sequence (Q16831 whole entry): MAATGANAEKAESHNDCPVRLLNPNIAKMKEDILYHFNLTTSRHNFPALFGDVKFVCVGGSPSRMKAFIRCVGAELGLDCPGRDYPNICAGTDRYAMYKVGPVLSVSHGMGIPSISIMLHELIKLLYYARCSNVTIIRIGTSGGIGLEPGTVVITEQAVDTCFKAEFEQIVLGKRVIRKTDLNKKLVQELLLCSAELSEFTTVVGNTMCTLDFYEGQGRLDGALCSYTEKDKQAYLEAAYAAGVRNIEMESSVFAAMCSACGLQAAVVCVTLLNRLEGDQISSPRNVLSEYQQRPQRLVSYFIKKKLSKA
- protocol_description: isothermal titration microcalorimetry (ITC), enzyme complexed with product ribose-1-phosphate
- Assay type: binding
- assay_setup: hUP1-R1P 50 μM
readout: ΔH°
Just so you know, I need the unit written after the number.

Recorded results for 6 compounds are shown here.
>>> df
                                   compound      value_reported
0      Cc1cc(O)[nH]c(=O)c1C#N [Compound c3]  -31 ± 1.2 kcal/mol
1                       N#Cc1ccc(O)[nH]c1=O  -15 ± 0.1 kcal/mol
2            Cc1c(CN(C)C)c(O)[nH]c(=O)c1C#N  -22 ± 0.4 kcal/mol
3         Cc1c(CNC(CO)CO)c(O)[nH]c(=O)c1C#N  -18 ± 0.4 kcal/mol
4  Cc1c(CNCC(O)CO)c(O)[nH]c(=O)c1C#N (centres unmarked)  -22 ± 0.5 kcal/mol
5  O=c1[nH]c(=O)n(COCCO)cc1Cc1ccccc1 [BAU, benzil acyclo uridine, reference compound]  -12 ± 0.3 kcal/mol

Consider the following items and state reported ΔH° for each.
1. Cc1cc(O)[nH]c(=O)c1C#N [c13]
2. Cc1c(CNCCO)c(O)[nH]c(=O)c1C#N

Reply:
1: -27 ± 0.7 kcal/mol; 2: -17 ± 0.6 kcal/mol
